The following compounds are shown together with reported Inhibition values.
Test system: Klebsiella pneumoniae
details: Concentration 32 ug.mL-1;; ASSAY_TEST Inhibition of Bacterial Growth; detection method Absorption (OD600); MEDIA CAMHB; plate type 384well; NBS; CORNING #3640; time 18 hr
Description: Antibacterial activity against Klebsiella pneumoniae MDR ATCC 70063 (CO-ADD:GN_003); MIC in CAMBH media using NBS plates, by OD(600)
Results with a measured potency or affinity are listed apart.
Write the answer as a number in %, unit excluded.

Field: example entries. Status: answers known.
Query for Klebsiella pneumoniae: what Inhibition does the record show for O=C(Cn1nc2nc(Nc3ccc(F)cc3)ccn2c1=O)Nc1ccc(F)cc1 ?
8.54

Could you do the same for CCN(CCCNC(=O)CCc1nnc2ccc(-c3ccccc3)nn12)c1ccccc1 , please?
9.95

Can you handle COC(=O)c1sccc1NC(=O)CSc1nc2ccccc2n2c(C)nnc12 next?
6.24

Try the compound COc1cccc(Oc2nccn3c(=O)n(CC(=O)Nc4cc(C)c(Cl)cc4OC)nc23)c1
-0.9

And the next one, CC(C)CCn1c(=O)c2ccc(C(=O)NC3CCCC3)cc2n2c(=O)n(CC#N)nc12 ?
12.37

Next compound, please.
State its Inhibition on Klebsiella pneumoniae: CCc1nnc2c(S(=O)(=O)N(Cc3cc(F)cc(F)c3)c3ccccc3)cccn12
9.94
